Reference source for all entries: patent US12655175B2

Biological target: GABAA receptor
Experiment: Steroid inhibition of [35S]-TBPS binding
Details: rat brain cortical membranes, 3 nM [35S]-TBPS, in the presence of 5 mM GABA
pIC50: −log10 of the molar value.
measured-metric: pIC50

Example molecules with recorded pIC50:
chemical-string	pIC50
C[C@@]1(O)CC[C@@]2(C)[C@@H](CC[C@@H]3[C@@H]2CC[C@]2(C)[C@@H](Nc4ccc(F)cc4)CC[C@@H]32)C1	6.30 to 7.00
C[C@@]1(O)CC[C@H]2[C@H](CC[C@@H]3[C@@H]2CC[C@]2(C)[C@@H](C(=O)NCCc4ccccc4)CC[C@@H]32)C1	6.30 to 7.00
C[C@]12CC[C@](O)(C(F)(F)F)C[C@@H]1CC[C@@H]1[C@@H]2CC[C@]2(C)[C@@H](C(=O)CNc3ccccc3)CC[C@@H]12	7.00 to 7.30
C[C@@]1(O)CC[C@H]2[C@H](CC[C@@H]3[C@@H]2CC[C@]2(C)[C@@H](C(=O)NC4CCOCC4)CC[C@@H]32)C1	< 6.30
CCOC[C@@]1(O)CC[C@H]2[C@H](CC[C@@H]3[C@@H]2CC[C@]2(C)[C@@H](C(=O)CNc4ccccc4)CC[C@@H]32)C1	7.30 to 8.00

Request: # lookup: pIC50 of CN(CC(=O)[C@H]1CC[C@H]2[C@@H]3CC[C@H]4C[C@](C)(O)CC[C@@H]4[C@H]3CC[C@]12C)c1ccccc1
Result: 6.30 to 7.00

Request: Now this one: COC(=O)N(C)[C@H]1CC[C@H]2[C@@H]3CC[C@H]4C[C@](C)(O)CC[C@]4(C)[C@H]3CC[C@]12C
Result: < 6.30

Request: What would you report for C[C@@]1(O)CC[C@H]2[C@@H](CC[C@@H]3[C@@H]2CC[C@]2(C)[C@@H](C(=O)CNc4ccccc4)CC[C@@H]32)C1 ?
Result: 7.00 to 7.30

Request: Follow-up item: C[C@@H]1CCCCN1C(=O)[C@H]1CC[C@H]2[C@@H]3CC[C@@H]4C[C@](C)(O)CC[C@@H]4[C@H]3CC[C@]12C
Result: 6.30 to 7.00

Request: Again, but for CN(Cc1ccncc1)C(=O)[C@H]1CC[C@H]2[C@@H]3CC[C@@H]4C[C@](C)(O)CC[C@@H]4[C@H]3CC[C@]12C
Result: 6.30 to 7.00

Request: Try this molecule next: C[C@@]1(O)CC[C@@]2(C)[C@@H](CC[C@@H]3[C@@H]2CC[C@]2(C)[C@@H](NCc4ccccc4)CC[C@@H]32)C1
Result: < 6.30

Request: Follow-up entry: C[C@@]1(O)CC[C@H]2[C@H](CC[C@@H]3[C@@H]2CC[C@]2(C)[C@@H](C(=O)NCc4ccncc4)CC[C@@H]32)C1
Result: < 6.30
